Assignment: determine reported EC50 for the given compounds.
- System: HEK293 cells stably expressing wildtype human APP695 protein (HEK-APPwt cells)
- method summary: Aβ Cell Based Assay (Aβ1-40 secretion, ELISA)
- details: reduction of Aβ1-40 secretion from HEK-APPwt cells, 6 hours incubation, DAPT as 100% inhibition reference
Your answer should be a plain number; it is taken to be in µM.

**Q:** Provide one value: measured EC50 of O=C(Nc1nc2cc(-c3ccccc3)ccc2[nH]1)c1cc2ccccc2cn1
**A:** 1.09

**Q:** Provide one value: measured EC50 of O=C(Nc1nc2cc(OCc3ccc(C(F)(F)F)cc3)ccc2[nH]1)c1cc2ccccc2cn1
**A:** 0.55

**Q:** Provide one value: measured EC50 of O=C(Nc1nc2cc(OCCC3CCCC3)ccc2[nH]1)c1cc2ccccc2cn1
**A:** 0.16

**Q:** Provide one value: measured EC50 of O=C(Nc1nc2cc(OCCCc3ccccc3)ccc2[nH]1)c1cc2ccccc2cn1
**A:** 1.2

###

- Tested on: HEK293 cells stably expressing wildtype human APP695 protein (HEK-APPwt cells)
- method summary: Aβ Cell Based Assay (Aβ1-40 secretion, ELISA)
- details: reduction of Aβ1-40 secretion from HEK-APPwt cells, 6 hours incubation, DAPT as 100% inhibition reference
readout kind: EC50 (µM)
Your answer should be a plain number; it is taken to be in µM.

**Q:** Provide one value: measured EC50 of O=C(Nc1nc2cc(OCc3ccc(F)cc3)ccc2[nH]1)c1cc2ccccc2cn1
**A:** 0.16

**Q:** Provide one value: measured EC50 of O=C(Nc1nc2cc(OCCc3ccccc3)ccc2[nH]1)c1cc2ccccc2cn1
**A:** 2

**Q:** Provide one value: measured EC50 of O=C(Nc1nc2cc(N3CCC(c4ccccc4)CC3)ccc2[nH]1)c1cc2ccccc2cn1
**A:** 1.4

**Q:** Provide one value: measured EC50 of O=C(Nc1nc2cc(OCc3ccccc3)ccc2[nH]1)c1cc2ccccc2cn1
**A:** 0.12

**Q:** Provide one value: measured EC50 of O=C(Nc1nc2cc(N(Cc3ccccc3)Cc3ccccc3)ccc2[nH]1)c1cc2ccccc2cn1
**A:** 2.3

**Q:** Provide one value: measured EC50 of O=C(Nc1nc2cc(OCc3ccc(F)cc3F)ccc2[nH]1)c1cc2ccccc2cn1
**A:** 1.2

**Q:** Provide one value: measured EC50 of COc1cccc(-c2ccc3[nH]c(NC(=O)c4cc5ccccc5cn4)nc3c2)c1
**A:** 1

**Q:** Provide one value: measured EC50 of O=C(Nc1nc2cc(NCc3ccccc3)ccc2[nH]1)c1cc2ccccc2cn1
**A:** 0.6

###

Assignment: determine reported IC50 for the given compounds.
- system under test: BACE-1 enzyme (Homo sapiens, UniProt P56817)
- Construct: purchased R & D Systems 931AS
- Sequence (P56817 46-457 limits assumed): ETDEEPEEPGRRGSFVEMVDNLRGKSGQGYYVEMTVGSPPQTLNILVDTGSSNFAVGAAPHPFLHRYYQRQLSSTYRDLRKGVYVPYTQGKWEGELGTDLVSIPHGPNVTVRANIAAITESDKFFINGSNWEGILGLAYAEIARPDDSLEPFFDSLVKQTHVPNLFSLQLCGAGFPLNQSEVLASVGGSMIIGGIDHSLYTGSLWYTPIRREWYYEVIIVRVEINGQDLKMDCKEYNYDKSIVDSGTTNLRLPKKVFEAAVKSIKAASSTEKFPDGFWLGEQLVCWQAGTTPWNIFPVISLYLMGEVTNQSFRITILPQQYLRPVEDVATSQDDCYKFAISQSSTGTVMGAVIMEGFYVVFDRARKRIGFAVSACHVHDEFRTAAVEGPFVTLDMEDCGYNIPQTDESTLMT
- method summary: BACE Fluorescence Resonance Energy Transfer (FRET) Assay
- Assay type: biochemical
- details: peptide substrate, pH 4-4.5, 30 min pre-incubation, 1.5 hours at room temperature
Your answer should be a plain number; it is taken to be in µM.

**Q:** Provide one value: measured IC50 of O=C(Nc1nc2cc(N3CCC(c4ccccc4)CC3)ccc2[nH]1)c1cc2ccccc2cn1
**A:** 0.1

**Q:** Provide one value: measured IC50 of O=C(Nc1nc2cc(OCCC3CCCC3)ccc2[nH]1)c1cc2ccccc2cn1
**A:** 0.26

**Q:** Provide one value: measured IC50 of O=C(Nc1nc2cc(OCc3ccc(F)cc3)ccc2[nH]1)c1cc2ccccc2cn1
**A:** 0.1

**Q:** Provide one value: measured IC50 of O=C(Nc1nc2cc(OCc3ccccc3)ccc2[nH]1)c1cc2ccccc2cn1
**A:** 0.085

**Q:** Provide one value: measured IC50 of COc1cccc(-c2ccc3[nH]c(NC(=O)c4cc5ccccc5cn4)nc3c2)c1
**A:** 0.16

**Q:** Provide one value: measured IC50 of O=C(Nc1nc2cc(OCc3ccc(F)cc3F)ccc2[nH]1)c1cc2ccccc2cn1
**A:** 0.86

**Q:** Provide one value: measured IC50 of O=C(Nc1nc2cc(-c3ccccc3)ccc2[nH]1)c1cc2ccccc2cn1
**A:** 0.19

**Q:** Provide one value: measured IC50 of O=C(Nc1nc2cc(OCCc3ccccc3)ccc2[nH]1)c1cc2ccccc2cn1
**A:** 0.19

**Q:** Provide one value: measured IC50 of O=C(Nc1nc2cc(OCc3ccc(C(F)(F)F)cc3)ccc2[nH]1)c1cc2ccccc2cn1
**A:** 0.95

**Q:** Provide one value: measured IC50 of O=C(Nc1nc2cc(NCc3ccccc3)ccc2[nH]1)c1cc2ccccc2cn1
**A:** 0.13

**Q:** Provide one value: measured IC50 of O=C(Nc1nc2cc(N(Cc3ccccc3)Cc3ccccc3)ccc2[nH]1)c1cc2ccccc2cn1
**A:** 0.38

**Q:** Provide one value: measured IC50 of O=C(Nc1nc2cc(OCCCc3ccccc3)ccc2[nH]1)c1cc2ccccc2cn1
**A:** 0.47
